Recorded values, source patent US20230365592A1.

Assay System: human PAH with the R408W mutation (Homo sapiens, UniProt P00439, R408W)
Construct: expressed in transfected cells
Sequence (P00439 whole entry R408W): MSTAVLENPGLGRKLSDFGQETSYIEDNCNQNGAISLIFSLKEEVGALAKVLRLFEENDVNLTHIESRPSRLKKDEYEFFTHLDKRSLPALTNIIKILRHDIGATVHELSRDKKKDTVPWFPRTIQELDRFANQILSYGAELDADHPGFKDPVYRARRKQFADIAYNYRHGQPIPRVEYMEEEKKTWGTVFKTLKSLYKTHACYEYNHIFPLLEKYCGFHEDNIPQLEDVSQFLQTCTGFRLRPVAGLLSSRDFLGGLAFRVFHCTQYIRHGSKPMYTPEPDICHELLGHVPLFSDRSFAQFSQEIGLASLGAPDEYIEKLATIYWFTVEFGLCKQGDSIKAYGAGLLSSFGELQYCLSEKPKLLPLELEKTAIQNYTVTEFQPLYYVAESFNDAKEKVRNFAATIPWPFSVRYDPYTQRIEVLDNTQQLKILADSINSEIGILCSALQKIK
Experiment Notes: Cell Based Phenylalanine Flux Assay
Condition Context: A375 cells expressing human PAH R408W; 24 hrs compound incubation; 13C-Tyrosine by LC-MS; average where tested multiple times; read-out: AC50
AC50 reference
Readout Kind: AC50

• Cn1cc(-c2nnc(C(=O)N3CCc4[nH]cnc4[C@H]3c3cc4c(F)cccn4n3)s2)cn1 = < 500 nM
• FC(F)Oc1cccn2nc([C@@H]3c4nc[nH]c4CCN3c3ncc(C(F)(F)F)cn3)cc12 = < 500 nM
• Cc1cccc(-c2nnc(N3CCc4[nH]cnc4[C@H]3c3cc4c(C(F)(F)F)cccn4n3)o2)n1 = 500 to 1000 nM
• Cc1cccn2nc([C@@H]3c4nc[nH]c4CCN3C(=O)c3ncco3)cc12 = 500 to 1000 nM
• CCc1cccn2nc([C@H]3c4nc[nH]c4CCN3C(=O)c3nnc(-c4ccccn4)o3)cc12 = > 5000 nM
• Cc1cccc(-c2nnc(N3CCc4[nH]cnc4[C@H]3c3cc4c(C)cccn4n3)o2)n1 = 500 to 1000 nM
• Cn1ccc(-c2nnc(C(=O)N3CCc4[nH]cnc4[C@H]3c3cc4c(C5CC5)cccn4n3)o2)n1 = < 500 nM
• Cc1cccn2nc([C@@H]3c4nc[nH]c4CCN3c3ncc(N)cn3)cc12 = 500 to 1000 nM

----------
AC50 reference
Assay System: human PAH with the R408W mutation (Homo sapiens, UniProt P00439, R408W)
Construct: expressed in transfected cells
Experiment Notes: Cell Based Phenylalanine Flux Assay
Condition Context: A375 cells expressing human R408W PAH; 24 hrs compound incubation; 13C-Tyrosine by LC-MS; average where tested multiple times; read-out: AC50
Readout Kind: AC50

- Cn1nc(C2CC2)nc1C(=O)N1CCc2[nH]cnc2[C@H]1c1cc2c(Cl)cccn2n1: 500 to 1000 nM
- COc1ccc2c(C(=O)N3CCc4[nH]cnc4[C@@H]3c3cc4c(C(F)F)cccn4n3)cnn2c1: > 5000 nM
- Cc1cccn2nc([C@H]3c4nc[nH]c4CCN3C(=O)c3nnc(C(C)(C)F)o3)cc12: > 5000 nM
- O=C(c1ocnc1C(F)(F)F)N1CCc2[nH]cnc2[C@H]1c1cc2cccc(Cl)n2n1: < 500 nM
- O=C(c1nnc(-c2ncccc2F)o1)N1CCc2[nH]cnc2[C@@H]1c1cc2cccc(C(F)(F)F)n2n1: > 5000 nM
- CC(C)(C)c1nnc(C(=O)N2CCc3[nH]cnc3[C@@H]2c2cc3c(C(F)F)cccn3n2)o1: 1000 to 5000 nM
- Cc1cccn2nc([C@H]3c4nc[nH]c4CCN3C(=O)c3oc(C4(O)CC4)nc3C(F)F)cc12: 1000 to 5000 nM
- Cc1ncoc1C(=O)N1CCc2[nH]cnc2[C@H]1c1cc2c(F)cccn2n1: < 500 nM

----------
AC50 reference
Assay System: human PAH with the R408W mutation (Homo sapiens, UniProt P00439, R408W)
Construct: expressed in transfected cells
Experiment Notes: Cell Based Phenylalanine Flux Assay;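 also: after compound treatment, cells received sepiapterin plus isotope-labelled Phenylalanine for 4 hours, then labelled Tyrosine in the medium was quantified, 10-point 2-fold dilution series run in duplicate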
Condition Context: A375 cells expressing human R408W PAH; 24 hrs compound incubation; 13C-Tyrosine by LC-MS; average where tested multiple times; read-out: AC50
Readout Kind: AC50

• Cn1nc(C(F)F)cc1C(=O)N1CCc2[nH]cnc2[C@H]1c1cc2cccc(C(F)F)n2n1 = 500 to 1000 nM
• N#Cc1ncoc1C(=O)N1CCc2[nH]cnc2[C@H]1c1cc2c(Cl)cccn2n1 = < 500 nM
• O=C(c1nnc(-c2ccc(C(F)(F)F)cc2)o1)N1CCc2[nH]cnc2[C@@H]1c1cc2ccccn2n1 = > 5000 nM
• O=C(c1nnc(-c2cccnc2)o1)N1CCc2[nH]cnc2[C@H]1c1cc2c(C(F)F)cccn2n1 = < 500 nM
• Cc1ccc2cc([C@H]3c4nc[nH]c4CCN3C(=O)c3ccnn3C(F)F)nn2c1 = 1000 to 5000 nM
• O=C(c1ocnc1C(F)F)N1CCc2[nH]cnc2[C@H]1c1cc2c(F)cccn2n1 = < 500 nM
• Cc1nnc(C(=O)N2CCc3[nH]cnc3[C@@H]2c2cc3c(Cl)cccn3n2)o1 = 1000 to 5000 nM
• CC(C)(F)c1nc(C(F)F)c(C(=O)N2CCc3[nH]cnc3[C@@H]2c2cc3c(C(F)(F)F)cccn3n2)o1 = 500 to 1000 nM
• O=C(c1nnc(-c2ncccn2)o1)N1CCc2[nH]cnc2[C@@H]1c1cc2cccc(Cl)n2n1 = 1000 to 5000 nM
• O=C(c1cnn2ccccc12)N1CCc2[nH]cnc2[C@H]1c1cc2c(C(F)F)cccn2n1 = < 500 nM
• CC(C)(O)c1nc(Cl)c(C(=O)N2CCc3[nH]cnc3[C@@H]2c2cc3c(F)cccn3n2)o1 = 1000 to 5000 nM
• Cc1cccn2nc([C@@H]3c4nc[nH]c4CCN3C(=O)c3nnc(-c4cc(C)n(C)n4)o3)cc12 = < 500 nM
• O=C(c1nnc(-c2cnn(C(F)F)c2)o1)N1CCc2[nH]cnc2[C@H]1c1cc2c(OC(F)F)cccn2n1 = 500 to 1000 nM
• CC(C)(F)c1nnc(C(=O)N2CCc3[nH]cnc3[C@H]2c2cc3c(OC(F)F)cccn3n2)o1 = 500 to 1000 nM
• O=C(c1nnc(-c2cnn(C(F)F)c2)o1)N1CCc2[nH]cnc2[C@H]1c1cc2c(Cl)cccn2n1 = < 500 nM
• O=C(c1nnc(-c2ncccc2F)o1)N1CCc2[nH]cnc2[C@@H]1c1cc2cccc(Cl)n2n1 = > 5000 nM
• O=C(c1nnc(C2CCC2)o1)N1CCc2[nH]cnc2[C@@H]1c1cc2c(C(F)F)cccn2n1 = 1000 to 5000 nM
• Cc1cccn2nc([C@@H]3c4nc[nH]c4CCN3C(=O)c3nnc(-c4ccc(C(F)(F)F)cn4)o3)cc12 = 500 to 1000 nM
• Cc1cccn2nc([C@H]3c4nc[nH]c4CCN3c3nc4ccccc4o3)cc12 = > 5000 nM
• CC(C)(F)c1nnc(C(=O)N2CCc3[nH]cnc3[C@H]2c2cc3c(F)cccn3n2)o1 = < 500 nM
• O=C(c1ocnc1C1CC1)N1CCc2[nH]cnc2[C@H]1c1cc2ccccn2n1 = < 500 nM
• Cc1ccc2cc([C@@H]3c4nc[nH]c4CCN3C(=O)c3cnco3)nn2c1 = 1000 to 5000 nM
• Cc1cccn2nc([C@H]3c4nc[nH]c4CCN3C(=O)c3nnc(-c4cnn(C(F)(F)F)c4)o3)cc12 = 1000 to 5000 nM
• O=C(c1cnn2cc(C3CC3)ccc12)N1CCc2[nH]cnc2[C@H]1c1cc2c(Cl)cccn2n1 = < 500 nM
• Cn1cncc1-c1nc(C(F)F)c(C(=O)N2CCc3[nH]cnc3[C@@H]2c2cc3ccccn3n2)o1 = > 5000 nM
• CC1(c2nnc(C(=O)N3CCc4[nH]cnc4[C@@H]3c3cc4c(C(F)(F)F)cccn4n3)o2)CC1 = 1000 to 5000 nM
• CC(C)(F)c1nc(C(F)F)c(C(=O)N2CCc3[nH]cnc3[C@@H]2c2cc3cccc(Cl)n3n2)o1 = 1000 to 5000 nM
• O=C(c1nnc(-c2ncccn2)o1)N1CCc2[nH]cnc2[C@H]1c1cc2c(Cl)cccn2n1 = < 500 nM
• Cc1cccn2nc([C@@H]3c4nc[nH]c4CCN3C(=O)c3nnc(-c4cnn(C5CCC5)c4)o3)cc12 = < 500 nM
• Cc1ccc2cc([C@H]3c4nc[nH]c4CCN3C(=O)c3cnco3)nn2c1 = 500 to 1000 nM
